melting point overview

COMPOUND | melting point
O=C(CS(=O)(=O)c1ccccc1)NCC(c1ccccc1)C(c1ccccc1)c1ccccc1 (stereo not shown) | 186.9 to 187.5 °C
O=C(Cc1ccccc1Cl)NCC(c1ccccc1)C(c1ccc(F)cc1)c1ccc(F)cc1 (stereo not shown) | 127.3 to 129.4 °C
COc1ccccc1CCC(=O)NCC(c1ccccc1)C1c2ccccc2CCc2ccccc21 (stereo not shown) | 134.3 to 136.8 °C
Cc1ccc(C(=O)NCC(c2ccccc2)C(c2ccccc2)c2ccccc2)s1 (stereo not shown) | 183.5 to 185 °C
O=C(NCC1(c2ccccc2)CC1(c1ccccc1)c1ccccc1)Oc1ccc(Cl)cc1 (stereo not shown) | 171 to 172 °C
O=C(CCCc1cccs1)NCC(c1ccccc1)C(c1ccccc1)c1ccccc1 (stereo not shown) | 105.5 to 106.9 °C
O=S(=O)(NCC(c1ccc(Cl)cc1)C(c1ccccc1)c1ccccc1)c1cccs1 (stereo not shown) | 180.4 to 181.9 °C
Cc1ccc(CC(=O)NCC(c2ccccc2)C(c2ccc(F)cc2)c2ccc(F)cc2)s1 (stereo not shown) | 127.9 to 128.9 °C
O=C(Cc1cccs1)NCC1(c2ccccc2)CC1(c1ccccc1)c1ccccc1 (stereo not shown) | 135 to 137 °C
O=C(NCC(c1ccccc1)C(c1ccccc1)c1ccccc1)C(c1ccccc1)c1ccccc1 (stereo not shown) | 178.7 to 179.8 °C
O=C(Cc1cccc(C(F)(F)F)c1)NCC(c1ccccc1)C(c1ccccc1)c1ccccc1 (stereo not shown) | 108.8 to 111.3 °C
O=C(Cc1ccsc1)NCC(c1ccccc1)C(c1ccccc1)c1ccccc1 (stereo not shown) | 135 to 138 °C
O=C(Cc1ccsc1)NCC(c1ccc(Cl)cc1)C(c1ccccc1)c1ccccc1 (stereo not shown) | 126.4 to 127.9 °C
O=C(NCC(c1ccccc1)C(c1ccccc1)c1ccccc1)c1cccs1 (stereo not shown) | 139 to 142 °C
O=C(Cc1c(Cl)cccc1Cl)NCC(c1ccccc1)C(c1ccccc1)c1ccccc1 (stereo not shown) | 165.2 to 166.5 °C
O=C(NCC(c1ccccc1)C(c1ccccc1)c1ccccc1)c1ccsc1 (stereo not shown) | 153.5 to 154.7 °C
O=C(CCc1ccccc1)NCC(c1ccccc1)C(c1ccccc1)c1ccccc1 (stereo not shown) | 107.4 to 109 °C
O=C(Cc1ccc(Cl)cc1)NCC(c1ccccc1)C(c1ccccc1)c1ccccc1 (stereo not shown) | 168.4 to 170.9 °C
CCCCC(=O)NCC1(c2ccccc2)CC1(c1ccccc1)c1ccccc1 (stereo not shown) | 122 to 123 °C
O=C(NCC(c1ccccc1)C(c1ccccc1)c1ccccc1)Oc1ccccc1 (stereo not shown) | 128 to 129 °C
O=C(NCC1(c2ccccc2)CC1(c1ccccc1)c1ccccc1)Nc1ccccc1 (stereo not shown) | 209 to 210 °C
O=C(NCc1ccccc1)NCC(c1ccccc1)C(c1ccccc1)c1ccccc1 (stereo not shown) | 170 to 171 °C
O=C(Cc1ccccc1)NCC(c1ccc(Cl)cc1)C(c1ccccc1)c1ccccc1 (stereo not shown) | 151.5 to 152.7 °C
O=C(NCC1(c2ccccc2)CC1(c1ccccc1)c1ccccc1)c1cccs1 (stereo not shown) | 152.5 to 155 °C
O=C(Cc1ccc(Cl)c(Cl)c1)NCC(c1ccccc1)C(c1ccccc1)c1ccccc1 (stereo not shown) | 65 to 68 °C
O=C(Cc1ccccc1C(F)(F)F)NCC(c1ccccc1)C(c1ccccc1)c1ccccc1 (stereo not shown) | 109 to 111.5 °C
O=C(C=Cc1cccs1)NCC(c1ccccc1)C(c1ccccc1)c1ccccc1 (stereo not shown) | 217.3 to 218.9 °C
O=C(NCC1(c2ccccc2)CC1(c1ccccc1)c1ccccc1)C(c1ccccc1)c1ccccc1 (stereo not shown) | 166 to 169 °C
O=C(Cc1ccccc1)NCC1(c2ccccc2)CC1(c1ccccc1)c1ccccc1 (stereo not shown) | 150 to 152 °C
O=C(Cc1cccs1)NCC(c1ccc(I)cc1)C(c1ccccc1)c1ccccc1 (stereo not shown) | 127 to 130 °C
COc1ccccc1CCC(=O)NCC(c1ccccc1)C(c1ccc(F)cc1)c1ccc(F)cc1 (stereo not shown) | 78.9 to 80.9 °C
O=C(Cc1ccccc1Cl)NCC(c1ccccc1)C(c1ccccc1)c1ccccc1 (stereo not shown) | 140.5 to 141.2 °C
CN(CC(c1ccccc1)C(c1ccccc1)c1ccccc1)C(=O)Cc1cccs1 (stereo not shown) | 107 to 109.3 °C
O=C(NCC(c1ccccc1)C(c1ccccc1)c1ccccc1)Nc1ccccc1Cl (stereo not shown) | 210 to 211 °C
